Measurement Target: T1, human ROR1 on the surface of tumor cells (human, UniProt Q01973 30-937)
T1 construct: whole, on cells; also called ROR1 on the cell surface; tumor cell ROR1
T1 sequence (Q01973 30-937): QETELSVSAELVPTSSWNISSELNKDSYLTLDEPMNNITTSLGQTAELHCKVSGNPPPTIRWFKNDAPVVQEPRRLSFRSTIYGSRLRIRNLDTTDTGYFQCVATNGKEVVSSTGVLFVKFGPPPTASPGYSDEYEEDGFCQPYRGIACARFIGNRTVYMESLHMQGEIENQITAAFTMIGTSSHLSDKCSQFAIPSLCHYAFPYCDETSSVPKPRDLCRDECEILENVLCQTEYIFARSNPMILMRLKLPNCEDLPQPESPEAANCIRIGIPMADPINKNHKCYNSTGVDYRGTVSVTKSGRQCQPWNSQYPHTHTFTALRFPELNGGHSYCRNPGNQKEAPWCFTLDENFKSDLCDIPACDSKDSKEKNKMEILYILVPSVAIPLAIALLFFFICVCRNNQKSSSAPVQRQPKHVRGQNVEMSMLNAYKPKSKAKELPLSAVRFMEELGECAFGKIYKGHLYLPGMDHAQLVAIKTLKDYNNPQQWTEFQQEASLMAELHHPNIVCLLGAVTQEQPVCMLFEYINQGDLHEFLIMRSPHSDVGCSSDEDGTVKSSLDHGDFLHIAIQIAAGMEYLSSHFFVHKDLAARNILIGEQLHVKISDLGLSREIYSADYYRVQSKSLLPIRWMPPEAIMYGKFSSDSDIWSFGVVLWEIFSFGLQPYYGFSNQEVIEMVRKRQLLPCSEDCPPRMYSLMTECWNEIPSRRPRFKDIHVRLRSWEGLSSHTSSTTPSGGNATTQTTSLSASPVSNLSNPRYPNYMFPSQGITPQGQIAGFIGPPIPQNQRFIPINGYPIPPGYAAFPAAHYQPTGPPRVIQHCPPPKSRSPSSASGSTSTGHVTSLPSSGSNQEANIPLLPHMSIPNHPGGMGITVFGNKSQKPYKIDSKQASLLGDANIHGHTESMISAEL
Assay Notes: FACS, MDA-MB-231 cells
Recorded Metric: EC50 (nM)

{"columns": ["Binder", "Value"],
 "data": [
  ["mAb007 (antibody, IgG2b, V domains shown, Mouse monoclonal antibody, IgG2b/k) VH: EVQLQQSGPELVKPGASVKMSCKASGYTFTDYNMHWVKQSHGKSLEWIGYINPNNGGTSYNQKFKGKATLTVNKSSSTAYMELRSLTSDDSAVYYCARRGYGSGYAMDYWGQGTSVTVSS VL: DVLMTQTPLSLPVSLGDQASISCRSSQSIVHTNGNTYLEWYLQNPGQSPKLLIYKVFNRFSGVPDRFSGSGSGTDFTLKISRVEAEDLGVYYCFQGSLFPYTFGGGTKLEIK", 0.15]
]}
